Test Target: Dihydrofolate reductase (Mus musculus, UniProt P00375)
Sequence (P00375 whole entry): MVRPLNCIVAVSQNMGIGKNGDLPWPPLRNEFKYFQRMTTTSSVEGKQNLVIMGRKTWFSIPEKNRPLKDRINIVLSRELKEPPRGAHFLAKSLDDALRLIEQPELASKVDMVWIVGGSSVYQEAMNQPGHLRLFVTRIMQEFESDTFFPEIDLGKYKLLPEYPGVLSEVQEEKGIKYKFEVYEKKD
Method Notes: Inhibition of the dihydrofolate reductase enzyme(DHFR) derived from L1210 murine leukemia cells.
Type: cell-based
Assay Endpoint: Ki

Ki measured on Nc1nc(N)c2c3c(cnc2n1)CC(c1ccc(C(=O)NC(CCC(=O)O)C(=O)O)cc1)CC3 (stereo unspecified) = 0.017 nM

----------
Test system: L1210
Method Notes: Concentration required to inhibit 50% growth of L1210 cells in culture.
Format: functional, cell-based
Experimental Parameters: Mus musculus
Assay Endpoint: IC50 (nM)
Report only the number, with the unit nM understood.

IC50 measured on Nc1nc(N)c2c3c(cnc2n1)CC(c1ccc(C(=O)NC(CCC(=O)O)C(=O)O)cc1)CC3 (stereo unspecified) = 4.5
